Test system: A498
Experiment Notes: NCI 60-cell line one-dose antiproliferative screen (SRB)
Assay type: cell-based
Study Conditions: Homo sapiens, read-out: growth inhibition % (GI%)
Value Kind: inhibition at 10 µM (%)
Field: numeric (%). Do not append units.

Here are 3 compounds together with their reported answers.
Cc1ccc(C(=O)c2ccc(CC(=O)NN3C(=O)C=CC3=O)n2C)cc1 | 10.7
Cc1ccc(C(=O)c2ccc(CC(=O)NN=Cc3ccccc3O)n2C)cc1 | 18
Cc1ccc(C(=O)c2ccc(CC(=O)NN=Cc3ccc(O)cc3O)n2C)cc1 | 12.6

As a next step, examine the compound that follows.
Short answer please: inhibition at 10 µM, A498, entry Cc1ccc(C(=O)c2ccc(CC(=O)NN=Cc3ccc4c(c3)OCO4)n2C)cc1
13.1

----------
Tested on: T-47D
Experiment Notes: NCI 60-cell line one-dose antiproliferative screen (SRB)
Assay type: cell-based
Study Conditions: Homo sapiens, T47D, read-out: growth inhibition % (GI%)
Each entry belongs to exactly one class, chosen by where its inhibition at 10 µM falls: range A = under 20%, range B = from 20% up to 30%, range C = 30% and over

Examples from the recorded data:
Cc1ccc(C(=O)c2ccc(CC(=O)NNC(=O)Nc3c(C)cccc3Cl)n2C)cc1 | range A
Cc1ccc(C(=O)c2ccc(CC(=O)NN=C3C(=O)Nc4ccc(OC(F)(F)F)cc43)n2C)cc1 | range A
Cc1ccc(C(=O)c2ccc(CC(=O)NN3C(=O)c4ccccc4C3=O)n2C)cc1 | range B
Cc1ccc(C(=O)c2ccc(CC(=O)NN=Cc3ccccc3O)n2C)cc1 | range B
Cc1ccc(C(=O)c2ccc(CC(=O)NNC(=O)Nc3c(Cl)cccc3Cl)n2C)cc1 | range A

Attention now turns to another entry.
Field: class (inhibition at 10 µM) — entry: Cc1ccc(C(=O)c2ccc(CC(=O)NN=Cc3c[nH]c4ccccc34)n2C)cc1
range B

----------
System: NCI-H226
Experiment Notes: NCI 60-cell line one-dose antiproliferative screen (SRB)
Assay type: cell-based
Study Conditions: Homo sapiens, read-out: growth inhibition % (GI%)
Listed below: inhibition at 10 µM values for each entry.

Here are 7 compounds together with their reported answers.
Cc1ccc(C(=O)c2ccc(CC(=O)NN=C3C(=O)Nc4ccc(Br)cc43)n2C)cc1 [Compound 6b] | < 10%
Cc1ccc(C(=O)c2ccc(CC(=O)NN=Cc3ccc4c(c3)OCO4)n2C)cc1 [Compound 5d] | < 10%
Cc1ccc(C(=O)c2ccc(CC(=O)NNC(=O)Nc3c(Cl)cccc3Cl)n2C)cc1 [Compound 8a] | < 10%
Cc1ccc(C(=O)c2ccc(CC(=O)NN=Cc3cccc(O)c3O)n2C)cc1 [Compound 5b] | 31%
Cc1ccc(C(=O)c2ccc(CC(=O)NN=Cc3c[nH]c4ccccc34)n2C)cc1 [Compound 5f] | < 10%
Cc1ccc(C(=O)c2ccc(CC(=O)NN3C(=O)C=CC3=O)n2C)cc1 [Compound 7b] | 22.1%
Cc1ccc(C(=O)c2ccc(CC(=O)NN=Cc3ccc(O)cc3O)n2C)cc1 [Compound 5c] | 34.3%

Look up inhibition at 10 µM for this compound: Cc1ccc(C(=O)c2ccc(CC(=O)NNC(=O)Nc3ccc(Cl)c(C(F)(F)F)c3)n2C)cc1 [Compound 8c]
< 10%

----------
Test system: OVCAR-5
Experiment Notes: NCI 60-cell line one-dose antiproliferative screen (SRB)
Format: cell-based
Study Conditions: Homo sapiens, read-out: growth inhibition % (GI%)
Listed below: inhibition at 10 µM values for each entry.

Here are 7 compounds together with their reported answers.
Cc1ccc(C(=O)c2ccc(CC(=O)NN=C3C(=O)Nc4ccc(Br)cc43)n2C)cc1 | < 10%
Cc1ccc(C(=O)c2ccc(CC(=O)NNC(=O)Nc3ccc(Cl)c(C(F)(F)F)c3)n2C)cc1 | 10.9%
Cc1ccc(C(=O)c2ccc(CC(=O)NN=Cc3cc4ccccc4[nH]3)n2C)cc1 | < 10%
Cc1ccc(C(=O)c2ccc(CC(=O)NN=Cc3cccc(O)c3O)n2C)cc1 | 27.4%
Cc1ccc(C(=O)c2ccc(CC(=O)NN=Cc3c[nH]c4ccccc34)n2C)cc1 | < 10%
Cc1ccc(C(=O)c2ccc(CC(=O)NN=C3C(=O)Nc4ccccc43)n2C)cc1 | < 10%
Cc1ccc(C(=O)c2ccc(CC(=O)NNC(=O)Nc3c(Cl)cccc3Cl)n2C)cc1 | < 10%

As a next step, examine the compound that follows.
Short answer please: inhibition at 10 µM, OVCAR-5, entry Cc1ccc(C(=O)c2ccc(CC(=O)NN=Cc3ccccc3O)n2C)cc1
< 10%

----------
Listed below: inhibition at 10 µM values for each entry.
Tested on: SF-295
Experiment Notes: NCI 60-cell line one-dose antiproliferative screen (SRB)
Format: cell-based
Study Conditions: Homo sapiens, read-out: growth inhibition % (GI%)

Cc1ccc(C(=O)c2ccc(CC(=O)NN3C(=O)CCC3=O)n2C)cc1 | < 10%
Cc1ccc(C(=O)c2ccc(CC(=O)NN=Cc3c[nH]c4ccccc34)n2C)cc1 | < 10%

As a next step, examine the compound that follows.
Look up inhibition at 10 µM for this compound: Cc1ccc(C(=O)c2ccc(CC(=O)NN=Cc3cc4ccccc4[nH]3)n2C)cc1
< 10%

----------
System: HOP-92
Experiment Notes: NCI 60-cell line one-dose antiproliferative screen (SRB)
Assay type: cell-based
Study Conditions: Homo sapiens, read-out: growth inhibition % (GI%)
Listed below: inhibition at 10 µM values for each entry.
Field: numeric (%). Do not append units.

Cc1ccc(C(=O)c2ccc(CC(=O)NN=Cc3ccc(O)cc3O)n2C)cc1 | 16.9

As a next step, examine the compound that follows.
Look up inhibition at 10 µM for this compound: Cc1ccc(C(=O)c2ccc(CC(=O)NN=Cc3cc4ccccc4[nH]3)n2C)cc1
10.3

----------
Listed below: inhibition at 10 µM values for each entry.
Tested on: 786-0
Experiment Notes: NCI 60-cell line one-dose antiproliferative screen (SRB)
Type: cell-based
Study Conditions: Homo sapiens, read-out: growth inhibition % (GI%)

Look up inhibition at 10 µM for this molecule: Cc1ccc(C(=O)c2ccc(CC(=O)NN=Cc3ccccc3O)n2C)cc1
< 10%

Look up inhibition at 10 µM for this molecule: Cc1ccc(C(=O)c2ccc(CC(=O)NN3C(=O)C=CC3=O)n2C)cc1
< 10%

Look up inhibition at 10 µM for this molecule: Cc1ccc(C(=O)c2ccc(CC(=O)NN=Cc3ccc4c(c3)OCO4)n2C)cc1
< 10%

Look up inhibition at 10 µM for this molecule: Cc1ccc(C(=O)c2ccc(CC(=O)NN3C(=O)CCC3=O)n2C)cc1
< 10%

----------
Test system: HCT-15
Experiment Notes: NCI 60-cell line one-dose antiproliferative screen (SRB)
Format: cell-based
Study Conditions: Homo sapiens, read-out: growth inhibition % (GI%)
Listed below: inhibition at 10 µM values for each entry.
Field: numeric (%). Do not append units.

Here are 2 compounds together with their reported answers.
Cc1ccc(C(=O)c2ccc(CC(=O)NNC(=O)Nc3ccc(Cl)c(C(F)(F)F)c3)n2C)cc1 [Compound 8c] | 10.9
Cc1ccc(C(=O)c2ccc(CC(=O)NN=Cc3ccccc3O)n2C)cc1 [Compound 5a] | 56.5

As a next step, examine the compound that follows.
Look up inhibition at 10 µM for this compound: Cc1ccc(C(=O)c2ccc(CC(=O)NN=Cc3c[nH]c4ccccc34)n2C)cc1 [Compound 5f]
16.8

----------
Listed below: inhibition at 10 µM values for each entry.
System: HT29
Experiment Notes: NCI 60-cell line one-dose antiproliferative screen (SRB)
Assay type: cell-based
Study Conditions: Homo sapiens, HT-29, read-out: growth inhibition % (GI%)
Field: numeric (%). Do not append units.

Cc1ccc(C(=O)c2ccc(CC(=O)NN=Cc3cccc(O)c3O)n2C)cc1 | 13.3

As a next step, examine the molecule that follows.
Look up inhibition at 10 µM for this molecule: Cc1ccc(C(=O)c2ccc(CC(=O)NN=Cc3ccc(O)cc3O)n2C)cc1
36

----------
Tested on: colon (HCT-15) cell line
Experiment Notes: MTT cytotoxicity assay
Assay type: cell-based
Study Conditions: Homo sapiens, mean ± SD of three experiments
Value Kind: IC50 (µM)
Field: numeric (µM). Do not append units.

Here are 2 molecules together with their reported answers.
CCN(CC)CCNC(=O)c1c(C)[nH]c(/C=C2\C(=O)Nc3ccc(F)cc32)c1C [Sunitinib, reference compound] | 9.06
Cc1ccc(C(=O)c2ccc(CC(=O)NN=Cc3ccc(O)cc3O)n2C)cc1 | 19

As a next step, examine the molecule that follows.
Look up IC50 for this molecule: Cc1ccc(C(=O)c2ccc(CC(=O)NN=Cc3cccc(O)c3O)n2C)cc1
6.62

----------
Test system: HOP-62
Experiment Notes: NCI 60-cell line one-dose antiproliferative screen (SRB)
Assay type: cell-based
Study Conditions: Homo sapiens, read-out: growth inhibition % (GI%)
Value Kind: inhibition at 10 µM (%)
Field: numeric (%). Do not append units.

Here are 2 compounds together with their reported answers.
Cc1ccc(C(=O)c2ccc(CC(=O)NNC(=O)Nc3ccc(Cl)c(C(F)(F)F)c3)n2C)cc1 [Compound 8c] | 20
Cc1ccc(C(=O)c2ccc(CC(=O)NN=Cc3ccc(O)cc3O)n2C)cc1 [Compound 5c] | 59.4

As a next step, examine the compound that follows.
Look up inhibition at 10 µM for this compound: Cc1ccc(C(=O)c2ccc(CC(=O)NN=Cc3cc4ccccc4[nH]3)n2C)cc1 [Compound 5e]
24
